Task for the reader: assign each of the following compounds its reported MCC.
ASSAY_PROCEDURE: Cytotoxicity (cell doubling time, trypan blue exclusion)
Format: cell-based
CONDITIONS: human, alex and mt-4 cells; cytotoxic at concentrations exceeding the value; read-out: concentrations cytotoxiques

Need MCC of `OC[C@H]1O[C@@H](S)[C@H](O)[C@@H](O)[C@@H]1O` , thanks.
> 2 mM

Using the record for `OC[C@H]1S[C@@H](O)[C@H](O)[C@@H](O)[C@@H]1O` , report its MCC.
> 2 mM
